Experiment Description: qHTS for Inhibitors of human tyrosyl-DNA phosphodiesterase 1 (TDP1): qHTS in cells in presence of CPT; note: nearly all actives have a fitted effect of over 55% in size; note: potency is the fitted concentration of half-maximal effect
Protocol Conditions: chicken DT40 Tdp1-/-;hTDP1 cells + 20 nM CPT, ATP luminescence, 48 h; series mostly up to 46.2 µM
Out of some 420,000 compounds screened, about 50,000 (12%) were called active. Roughly 26% stayed inconclusive and do not appear here. This is one part of a sample in which actives are shown more often than they occur.
Measurement Name: Potency

compound=O=C(NC1CCN(Cc2ccccc2)CC1)c1ccccc1F measurement_name=Potency experimental_value=inactive
compound=O=C(CSc1ncnc2scc(-c3ccccc3)c12)NCc1ccc2c(c1)OCO2 measurement_name=Potency experimental_value=inactive
compound=CN1CCN(S(=O)(=O)c2cccc(C(=O)Nc3cccc(S(N)(=O)=O)c3)c2)CC1 measurement_name=Potency experimental_value=inactive
compound="Cc1c(Cl)cccc1NC(=O)C1CCCN(C(=O)c2cnn(-c3ccccc3)c2-n2cccc2)C1 (centres undefined)" measurement_name=Potency experimental_value="23.1 µM (active)"
compound=COc1cccc(-c2ccc(C#N)c(SCC(=O)NCCc3ccc(Cl)cc3)n2)c1 measurement_name=Potency experimental_value=inactive
compound="O=C(CCNS(=O)(=O)c1ccc(Br)cc1)NCC1CCCO1 (centres undefined)" measurement_name=Potency experimental_value=inactive
compound=Cc1nn(Cc2ccc(F)cc2)c(C)c1NC(=O)c1cc(CC(C)C)on1 measurement_name=Potency experimental_value="20.6 µM (active)"
compound="COc1ccc(C(C(=O)NCc2ccccc2)n2c(=O)c(-c3ccccc3)nc3ccccc32)cc1 (centres undefined)" measurement_name=Potency experimental_value="14.6 µM (active)"
compound="CCCCCNC(=O)C(c1ccc(OC)cc1)n1c(=O)c(-c2ccccc2)nc2ccccc21 (centres undefined)" measurement_name=Potency experimental_value="23.1 µM (active)"
compound=S=C(Nc1ccc(Br)cc1Cl)NC1CCN(Cc2ccccc2)CC1 measurement_name=Potency experimental_value="18.4 µM (active)"
compound="COc1ccc(CNC(=O)C(C)NCc2ccccc2Cl)cc1 (centres undefined)" measurement_name=Potency experimental_value=inactive
compound=Cc1ccccc1CSc1nnc(-c2ccccc2)c(=O)[nH]1 measurement_name=Potency experimental_value=inactive
compound="O=C(NCCc1ccc(Cl)cc1)C1CCCN1C(=O)NCc1ccccc1 (centres undefined)" measurement_name=Potency experimental_value=inactive
compound="COc1cccc(-c2cnc(C(O)c3ccccc3OC)[nH]2)c1 (centres undefined)" measurement_name=Potency experimental_value=inactive
compound=O=C(NNC(=S)NCc1ccco1)C(c1ccccc1)c1ccccc1 measurement_name=Potency experimental_value=inactive
compound=COc1ccc(CCNC(=S)N2CCN(S(=O)(=O)c3ccc(Cl)cc3)CC2)cc1 measurement_name=Potency experimental_value=inactive
compound="Cc1ccc(SCc2c(C(=O)N/N=C/C3CC=CCC3)nnn2-c2nonc2N)cc1 (centres undefined)" measurement_name=Potency experimental_value=inactive
compound=COc1ccc2c(c1)CCc1c(C(=O)Nc3c(C)n(C)n(-c4ccccc4)c3=O)noc1-2 measurement_name=Potency experimental_value=inactive
compound=O=C(NNC(=S)Nc1ccc(Br)cc1Cl)c1ccco1 measurement_name=Potency experimental_value=inactive
compound="CC1(c2ccc3ccccc3c2)NC(=O)NC1=O (centres undefined)" measurement_name=Potency experimental_value=inactive
compound=Cc1cc(C(=O)Nc2c(C)nn(Cc3ccccc3)c2C)on1 measurement_name=Potency experimental_value=inactive
compound="CCOc1ccccc1NC(=O)C1CCCN(C(=O)Nc2ccccc2)C1 (centres undefined)" measurement_name=Potency experimental_value=inactive
compound=Cc1ccccc1Cn1nc(C)c(NC(=O)C(F)(F)F)c1C measurement_name=Potency experimental_value=inactive
compound=CCCN(c1ccc(C)cc1)c1nc(=O)c2cccnc2s1 measurement_name=Potency experimental_value=inactive
compound=Nc1nonc1-n1nnc(C(=O)N/N=C\c2ccncc2)c1CN1CCCCC1 measurement_name=Potency experimental_value=inactive
compound=O=C(CN1CCC(NC(=O)C2CC2)CC1)Nc1ccccc1[N+](=O)[O-] measurement_name=Potency experimental_value=inactive
compound=COc1ccccc1C(=O)COC(=O)CSCC(=O)Nc1cc(C)on1 measurement_name=Potency experimental_value=inactive
compound=COc1cc(C(=O)Nc2cc(C(F)(F)F)ccc2N2CCOCC2)ccc1O measurement_name=Potency experimental_value=inactive
compound=O=C(NC1CCN(Cc2ccccc2)CC1)c1cc(Br)c(Br)[nH]1 measurement_name=Potency experimental_value="18.4 µM (active)"
compound=CCOc1ccc(N(C)Cc2cc(=O)oc3ccc(OC)cc23)cc1 measurement_name=Potency experimental_value=inactive
compound=CCCN(CCC)CCCNC(=O)CNC(=O)c1nn(-c2ccc(OC)cc2)c(=O)c2ccccc12 measurement_name=Potency experimental_value=inactive
compound=O=C(NC1CCN(Cc2ccccc2)CC1)c1c(F)cccc1F measurement_name=Potency experimental_value=inactive
compound="CC(NS(=O)(=O)c1ccc(Cl)cc1)C(=O)Nc1ccc2c(c1)OCCO2 (centres undefined)" measurement_name=Potency experimental_value=inactive
compound=O=C(O)CN(Cc1ccco1)S(=O)(=O)c1ccc(F)cc1 measurement_name=Potency experimental_value=inactive
compound=CCOc1ccc(NC(=O)CN(C)C(=O)c2c(C)noc2C)cc1OCC measurement_name=Potency experimental_value=inactive
compound="OC(c1ccc(Cl)c(F)c1)c1ncc(-c2ccccc2Cl)[nH]1 (centres undefined)" measurement_name=Potency experimental_value=inactive
compound=Cc1ccn2cc(C(=O)NC3CCN(Cc4ccccc4)CC3)nc2c1 measurement_name=Potency experimental_value=inactive
compound=Cc1nn(C(C)(C)C)c(OC(=O)CC(C)C)c1S(=O)(=O)c1ccccc1 measurement_name=Potency experimental_value=inactive
compound=Cc1cc(Br)ccc1NC(=S)NC1CCCC1 measurement_name=Potency experimental_value=inactive
compound=CCOc1ccc(C(=O)NCC(=O)N2CCCCCCC2)cc1OCC measurement_name=Potency experimental_value=inactive
compound=S=C(Nc1ccc(Br)cc1)NC1CCN(Cc2ccccc2)CC1 measurement_name=Potency experimental_value="16.4 µM (active)"
compound="CCCc1ccc(C(O)c2ncc(-c3cccc(OC)c3)[nH]2)cc1 (centres undefined)" measurement_name=Potency experimental_value="16.4 µM (active)"
compound=Cc1cc(C)cc(NS(=O)(=O)Cc2ccccc2)c1 measurement_name=Potency experimental_value=inactive
compound=CN(C)C(=O)c1cccc(-c2cnc3sc(NCc4ccc5c(c4)OCO5)nn23)c1 measurement_name=Potency experimental_value="16.4 µM (active)"

====

Experiment Description: qHTS for Inhibitors of human tyrosyl-DNA phosphodiesterase 1 (TDP1): qHTS in cells in presence of CPT; note: nearly all actives have a fitted effect of over 55% in size
Protocol Conditions: chicken DT40 Tdp1-/-;hTDP1 cells + 20 nM CPT, ATP luminescence, 48 h; series mostly up to 46.2 µM
The whole screen tested about 420,000 compounds, of which about 50,000 (12%) were called active. Roughly 26% stayed inconclusive and do not appear here. Calls follow the shape of the dose curve; as a rule, active = well fitted inhibition curve with a large enough effect; inconclusive = small, poorly fitted or top-dose-only effect; inactive = flat fitted curve, though single readings scatter. What follows is part of a selection rich in actives, with near analogues and random picks from the rest.
Outcome codes: TRUE (active), FALSE (inactive)

compound="Cc1cc2c(cc1C)C(c1cccc(OC(C)C)c1)CC(=O)N2 (centres undefined)" answer_label=TRUE
compound=O=C(CNS(=O)(=O)c1ccccc1)NCC(=O)OCc1ccccc1F answer_label=FALSE
compound="c1ccc(-c2ccc3c(c2)NC(C2Nc4cc(-c5ccccc5)ccc4O2)O3)cc1 (centres undefined)" answer_label=FALSE
compound=CC(=O)Nc1ccc(NC(=O)c2ccc3c(c2)C(=O)N(c2ccccc2C)C3=O)cc1 answer_label=FALSE
compound=COc1ccc(NC(=S)N2CCC(NC(=O)c3cccc(F)c3)CC2)cc1 answer_label=FALSE
compound=CCC(=O)N(Cc1ccccc1)c1ccccn1 answer_label=FALSE
compound=O=C(NN=Cc1ccccc1)c1ccccc1 answer_label=FALSE
compound=COc1cccc(Cn2c(=O)c(-c3ccccc3)nc3cnc(OC)nc32)c1 answer_label=FALSE
compound="N#CCC(=O)NC1CCC(CC2CCC(NC(=O)CC#N)CC2)CC1 (centres undefined)" answer_label=FALSE
compound=CCCn1cc(S(=O)(=O)c2ccc(C)cc2)c(=O)c2cc(OCC)ccc21 answer_label=FALSE
compound=Cc1ccc(NC(=S)N/N=C2/CCCc3c(C)cc(C)cc32)cc1 answer_label=FALSE
compound=COCCn1cnnc1SCC(=O)Nc1cccc(S(=O)(=O)N2CCCCC2)c1 answer_label=FALSE
compound=CS(=O)(=O)c1ccc2nc(NC(=O)CN3CCCCCC3)sc2c1 answer_label=FALSE
compound=CCN(C(=O)COC(=O)c1ccccc1O)c1cccc2ccccc12 answer_label=FALSE
compound="CCOC(=O)C(Cc1ccccc1)NC(=O)CCc1c(C)nc2c(c(C)nn2-c2ccc(C)c(C)c2)c1C (centres undefined)" answer_label=FALSE
compound=COc1cccc(NC(=O)CN(C)C(=O)Cc2ccc(Cl)cc2Cl)c1 answer_label=FALSE
compound=Cc1sc2ncnc(N3CCC(C(=O)NNC(=O)c4ccc(F)cc4)CC3)c2c1C answer_label=TRUE
compound=CCOc1cccc(C(=O)Nc2cnn(Cc3ccccc3)c2)c1 answer_label=FALSE
compound=Cc1c(Cl)c([N+](=O)[O-])nn1CC(=O)NCCCN1CCOCC1 answer_label=FALSE
compound=O=C(O)c1cc(S(=O)(=O)N(Cc2ccccc2)c2ccccc2)ccc1Cl answer_label=FALSE
compound=CCCCc1ccc(NC(=S)NCCCN2CCOCC2)cc1 answer_label=FALSE
compound=O=C(Nc1cc2c3c(c1)CC(=O)N3CCC2)c1ccccc1F answer_label=FALSE
compound=Cc1ccc(S(=O)(=O)N(Cc2ccccc2)c2ccccn2)cc1[N+](=O)[O-] answer_label=FALSE
compound="COC(=O)c1ccc(C2CC(=O)Nc3cc(OC)c(OC)cc32)cc1 (centres undefined)" answer_label=FALSE
compound=O=C(O)c1ccc(/C=N/NC(=S)NCc2ccccc2)cc1 answer_label=FALSE
compound=CCc1c(Nc2ccccc2C)nc(N)[nH]c1=O answer_label=FALSE
compound=COc1cccc(NC(=O)CSc2cc(=O)n(C)c3ccc(Cl)cc23)c1 answer_label=TRUE
compound=O=C(NC1CCCCC1)c1cc(C2CC2)on1 answer_label=FALSE
compound=COC(=O)c1cc(C(=O)N(Cc2ccccc2)c2ccccn2)cc([N+](=O)[O-])c1 answer_label=FALSE
compound="Cc1nnc(SCC2=C(C(=O)O)N3C(=O)C(NC(=O)Cn4nc(C)c(Cl)c4C)C3SC2)s1 (centres undefined)" answer_label=FALSE
compound=CN=C(NC#N)NCCSCc1nc[nH]c1C answer_label=FALSE
compound=CCN1CCN(C(=O)C2CCN(S(=O)(=O)c3cc(Cl)ccc3Cl)CC2)CC1 answer_label=FALSE
compound="CC1(C(=O)NCCc2c[nH]c3ccccc23)C=CC2(CCCCC2)N1C(=O)c1ccccc1 (centres undefined)" answer_label=TRUE
compound="Cc1cc(C)c(NC(=S)N2CCCC2C(=O)O)c(C)c1 (centres undefined)" answer_label=FALSE
compound="CC1CN(C(=O)N2CCC(C(=O)NCc3cccs3)CC2)c2ccccc2O1 (centres undefined)" answer_label=FALSE
compound=O=C(COC(=O)/C=C/c1cccs1)NC1CCCCC1 answer_label=FALSE
compound=NC(=O)COC(=O)c1ccc2c(c1)C(=O)N(Cc1ccco1)C2=O answer_label=FALSE
compound=CCc1ccc(NC(=O)CN2C(=O)CSC2=O)cc1 answer_label=FALSE
compound=Cc1sc2ncnc(N3CCC(C(=O)Nc4nc5ccc(Cl)cc5s4)CC3)c2c1C answer_label=TRUE
compound=CN(C)CCCNC(=S)NCc1ccc(Cl)cc1 answer_label=FALSE
compound="COc1ccc(NC(=O)CC(NC(C)c2ccccc2)C(=O)O)cc1 (centres undefined)" answer_label=FALSE
compound=CCOc1ccc(CCNC(=O)CSc2cc(=O)n(C)c3ccc(Cl)cc23)cc1OCC answer_label=TRUE
compound="O=C(NCC(=O)N(c1ccccc1)C(C(=O)NCC1CCCO1)c1ccccc1)c1cccs1 (centres undefined)" answer_label=FALSE
compound=COc1ccc2c(c1)c(=O)c(S(=O)(=O)c1ccc(F)cc1)cn2CC(=O)Nc1ccc(C)cc1C answer_label=FALSE
